Cited source: patent US20170081400A1

TESTED_ON: T1, human TL1A extracellular domain with N-terminal HIS and FLAG tag (human, UniProt O95150 72-251)
T1 construct: whole entry named. ~70 kDa fraction purified by gel filtration
T1 sequence: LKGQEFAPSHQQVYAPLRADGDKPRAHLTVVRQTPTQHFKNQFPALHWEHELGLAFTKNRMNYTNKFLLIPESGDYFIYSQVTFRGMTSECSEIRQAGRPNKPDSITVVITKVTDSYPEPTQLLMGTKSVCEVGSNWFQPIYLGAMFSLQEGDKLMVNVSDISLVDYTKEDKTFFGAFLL
ASSAY_REMARKS: SPR run 2; supernatant on Protein A; TL1A 10 ug/mL; timepoint 220

BINDER	UNITS	TL1A Binding Level (Late)
320-219 (antibody, human IgG1, name in Kabat numbering, V domains shown, human IgG1, lambda) VH: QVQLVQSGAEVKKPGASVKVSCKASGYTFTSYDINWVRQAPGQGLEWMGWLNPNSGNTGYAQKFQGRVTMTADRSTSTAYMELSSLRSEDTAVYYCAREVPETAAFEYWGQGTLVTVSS VL: QSVLTQPPSVSGAPGQRVTISCTSSDSDIGAGLGVHWYQQLPGTAPKLLIEGYYNRPSGVPDRFSGSKSGTSASLTITGLLPEDEGDYYCQSYDGTLSALFGGGTKLTVLG	RU	220
320-242 (antibody, human IgG1, name in Kabat numbering, V domains shown, human IgG1, lambda) VH: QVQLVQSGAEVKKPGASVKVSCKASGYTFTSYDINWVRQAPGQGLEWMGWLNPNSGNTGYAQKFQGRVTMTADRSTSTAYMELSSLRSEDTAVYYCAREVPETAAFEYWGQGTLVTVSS VL: QSVLTQPPSVSGAPGQRVTISCTSSSSDSGAGLGVHWYQQLPGTAPKLLIEGYYNRPSGVPDRFSGSKSGTSASLTITGLLPEDEGDYYCQSYDGTLSALFGGGTKLTVLG	RU	49
320-225 (antibody, human IgG1, name in Kabat numbering, V domains shown, human IgG1, lambda) VH: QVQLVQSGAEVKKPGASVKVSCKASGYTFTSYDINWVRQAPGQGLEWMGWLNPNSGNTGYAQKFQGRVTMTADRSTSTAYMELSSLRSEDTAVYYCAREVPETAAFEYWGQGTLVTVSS VL: QSVLTQPPSVSGAPGQRVTISCTSSSADIGAGLGVHWYQQLPGTAPKLLIEGYYNRPSGVPDRFSGSKSGTSASLTITGLLPEDEGDYYCQSYDGTLSALFGGGTKLTVLG	RU	243
